experiment: Example 18 Part 2: multiple dose PK (20 mg QID) of 3,4-DAP and 3-N-acetyl metabolite in slow and fast acetylators; type: in vivo, human; details: both sexes, human, plasma, oral, 20 mg, Day 3, Dose 4, slow acetylators, 20 mg QID; read-out: Mean Vz/F

>  <COMPOUND>
Nc1ccncc1N [3,4-DAP, 3,4-diaminopyridine]

>  <Vd/F, L>
376

$$$$

====

experiment: Example 18 Part 2: multiple dose PK (20 mg QID) of 3,4-DAP and 3-N-acetyl metabolite in slow and fast acetylators; assay type: in vivo, human; settings: both sexes, human, plasma, oral, 20 mg, Day 1, Dose 4, slow acetylators, 20 mg QID; read-out: Mean Tmax

>  <ENTRY SMILES>
Nc1ccncc1N

>  <UNIT OF MEASURE>
h

>  <Tmax>
1.29

$$$$
